test_description: Cytotoxicity against human HL60 cells assessed as cell growth inhibition at 30 uM after 48 hrs by MTT assay
Assay type: functional
condition_summary: HL-60, 48 h, read-out: GI
endpoint_name: inhibition of growth at 30 µM (%)
Give bare numbers, in %.

As a guide, the following entries are already answered.
C[C@H]1[C@@H](OCCOc2ccc(/C=C/C(=O)c3ccc(Cl)cc3)cc2)O[C@@H]2O[C@@]3(C)CC[C@H]4[C@H](C)CC[C@@H]1[C@@]24OO3
89.4
C[C@H]1[C@@H](OCCOc2ccc(-c3cc(=O)c4ccc(OCCO[C@H]5O[C@H]6O[C@@]7(C)CC[C@H]8[C@H](C)CC[C@@H]([C@H]5C)[C@@]68OO7)cc4o3)cc2)O[C@H]2O[C@@]3(C)CC[C@H]4[C@H](C)CC[C@@H]1[C@@]24OO3
71.8
C[C@H]1[C@@H](OCCOc2ccc(/C=C/C(=O)c3ccc(Cl)s3)cc2)O[C@@H]2O[C@@]3(C)CC[C@H]4[C@H](C)CC[C@@H]1[C@@]24OO3
91.9
COc1ccc(/C=C/C(=O)c2ccc(OCCO[C@H]3O[C@@H]4O[C@@]5(C)CC[C@H]6[C@H](C)CC[C@@H]([C@H]3C)[C@@]46OO5)cc2)c(OC)c1OC
78.7
C[C@H]1[C@@H](O)O[C@@H]2O[C@@]3(C)CC[C@H]4[C@H](C)CC[C@@H]1[C@@]24OO3
91

Answer for every listed entry: what is its inhibition of growth at 30 µM? The entries follow.
1. C[C@H]1[C@@H](OCCOc2ccc(/C=C/C(=O)c3cc4ccccc4o3)cc2)O[C@@H]2O[C@@]3(C)CC[C@H]4[C@H](C)CC[C@@H]1[C@@]24OO3
2. C[C@H]1[C@@H](OCCOc2ccc(/C=C/C(=O)c3ccc(O)cc3)cc2)O[C@@H]2O[C@@]3(C)CC[C@H]4[C@H](C)CC[C@@H]1[C@@]24OO3
3. C[C@H]1[C@@H](OCCOc2ccc(/C=C/C(=O)c3ccc(OCCO[C@H]4O[C@@H]5O[C@@]6(C)CC[C@H]7[C@H](C)CC[C@@H]([C@H]4C)[C@@]57OO6)cc3)cc2)O[C@@H]2O[C@@]3(C)CC[C@H]4[C@H](C)CC[C@@H]1[C@@]24OO3
4. CCOc1cc(/C=C/C(=O)c2ccc(OCCO[C@H]3O[C@@H]4O[C@@]5(C)CC[C@H]6[C@H](C)CC[C@@H]([C@H]3C)[C@@]46OO5)cc2)ccc1O

Result:
[84.6, 90.1, 85.6, 80.8]
